molecular target: T1, SARS-COV-2 RBD (SARS-COV-2, UniProt P0DTC2 319-539); experiment: ELISA, RBD coated on plate
T1 construct: also called WT RBD
EC50 values by entry
State the answer as a number, implicitly in ng/mL.

| BINDER | EC50 (ng/mL) |
| --- | --- |
| C945 (antibody, V domains shown) VH: QVQLVQSGAEVKKPGASVRISCKASGYTFTNYYMHWVRQAPGQGLEWMGIINPSGGSTTYAPKFQARVTMTRDTSTSTVYMELSSLRSDDTAVYYCARDYVLVPARSGMDVWGQGTTVTVS VL: EIVLTQSPATLSLSPGERATLSCRASQSVSSYLAWYQQKPGQAPRLLIYDASNRATGIPARFSGSGSGTDFTLTISSLEPEDFAIYYCQQRSNWPYTFGQGTKLEIK | 3.13 |
| C1048 (antibody, V domains shown) VH: EVQLVQSGAEVKKPGESLKISCKVSGYSFISHWIGWVRQMPGKGLEWMGIIYPGDSDTRYSPSFQGQVTISADKSISTAYLQWSSLKASDTAMYYCARRGASWELDYWGQGTLVTV VL: QSVLTQPPSASGTPGQRVTISCSGSSSNIGSNPVSWYQQLPGPAPQLLIYGNDQRPSGVPDRFSGSKSGTSASLAISGLQSEDEADYYCAAWDDSLNGYVFGTGTKVTVL | 2.41 |

--- query ---
[in] Fill in the blank: the reported EC50 of C924 (antibody, V domains shown) VH: QVQLVESGGGVVQPGRSLRLSCAASGFTFSSYGMHWVRQAPGKGLEWVAVISDDGSNKYYADSVKGRFTISRDNSKNTLYLQMNSLRAEDTAVYYCAKSWWLSENWFDPWGQGTLVTVSS VL: EIVMTQSPATLSVSPGERATLSCRASQSVSSNLAWYQQKPGQAPRLLIYGASTRATGIPARFSGTGSGTEFTLTISSLQSEDFAVYYCQQYNNWPLTFGGGTKVEIK is ____.
[out] 2.5

Source listed as patent US20240218057A1.
